Kindly supply the reported binding signal values for the records listed here.
- target_entity: MSI1 full-length (mouse, UniProt Q61474 1-362)
- Sequence (Q61474 whole entry): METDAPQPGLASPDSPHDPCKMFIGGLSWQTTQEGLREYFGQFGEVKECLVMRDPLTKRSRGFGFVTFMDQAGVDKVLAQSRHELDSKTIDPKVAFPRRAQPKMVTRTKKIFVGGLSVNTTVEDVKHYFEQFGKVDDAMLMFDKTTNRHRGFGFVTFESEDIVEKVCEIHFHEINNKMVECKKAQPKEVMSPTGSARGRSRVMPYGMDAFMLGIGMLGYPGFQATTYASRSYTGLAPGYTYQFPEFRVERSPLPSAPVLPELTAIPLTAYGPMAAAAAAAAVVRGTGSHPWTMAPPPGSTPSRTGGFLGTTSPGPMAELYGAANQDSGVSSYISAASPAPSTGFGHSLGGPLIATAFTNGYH
- assay_procedure: nsRBNS (natural sequence RNA bind-n-seq); RBNS binding buffer (assumed for nsRBNS): 25 mM Tris pH 7.5, 150 mM KCl, 3 mM MgCl2, 0.01% Triton X-100, 500 ug/ml BSA, 20 U/ml SUPERase-In, 4 C; UNK is unkempt and MSI1 is Musashi-1; names of the RNAs are library labels; protein concentration not given here; high values mean tight binding
Whole data set: some 5,800 sequences, median “enrichment r” near 0.54, cut for the highest 2% near 16. This is one part of a sample in which the highest values are shown more often than they occur.
Give me the value, and tack the unit on after it.

ENSG00000070961:be:win_4601|3pUTR|ENSG00000070961|bound_else_gene|NA|bound_elsewhere_windowed (ssRNA) RNA: GGGAGUUCUACAGUCCGACGAUCUCAGACUAUCAAACUACAAGAGAACCUUAGUCUUUUUUGUUUUUGUCUAAACAUGUUAGUUUAGUGAUGUCUUGGUGAACUGUGAGUGAACUGUAUUGAUUUUUCUAAUCUUUAGAGACCCAACAGAGGAUUGAGCAUCA	3.69 enrichment R
chr7:111727939:111728040:-|3pUTR|ENSG00000128512|unk|total|mutant (ssRNA) RNA: GGGAGUUCUACAGUCCGACGAUCAAGUGGUAAACCGUGAUAAAGACUCCUUUUGUACCUUUUUAUGUUCACUUUUUUUUAUACCGUUUAAUCUUAAAACCAAUACGAUAUUGUCAAACGAUACAAUGUGUGACAAUGUUGUAUCAACAGAGGAUUGAGCAUCA	3.05 enrichment R
ENSG00000070961:be:win_4701|3pUTR|ENSG00000070961|bound_else_gene|NA|bound_elsewhere_windowed (ssRNA) RNA: GGGAGUUCUACAGUCCGACGAUCUUUUCUAAUCUUUAGAGACCUUCACACAGCAUGAGGGCUGUUGGCAUUUUGAAAAAGGUUAAUAAGUAGAAGCAUACAUGUUUUCCUUUUGUUUUUGAAACUUGUUUGUAAACAUAAAUACAACAGAGGAUUGAGCAUCA	0.664 enrichment R
ENSG00000070961:be:win_2801|CDS|ENSG00000070961|bound_else_gene|NA|bound_elsewhere_windowed (ssRNA) RNA: GGGAGUUCUACAGUCCGACGAUCGUCAUGCAUUCUAUCAACUUGUAGUAGUCUUUACACUCUUAUUUGCUGGAGAAAAGUUUUUUGACAUUGAUAGUGGAAGAAAUGCUCCUUUGCAUGCUCCUCCUUCAGAACAUUAUACUACAACAGAGGAUUGAGCAUCA	0.822 enrichment R

For each of the binders below, note its binding signal.
1. chr5:128187618:128187661:+|3pUTR|ENSG00000064651|msi1_unk|FALSE|overlapping (ssRNA) RNA: GGGAGUUCUACAGUCCGACGAUCUCCUUUAUAAGUCAUUAAAAUAAUGUUUCAUCAAAUGGUUAAAUGGACCACUGGUUUCUUAGAGAAAUGUUUUUAGGCUUAAUUCAUUCAAUUGUCAAGUACACUUAGUCUUAAUACACUCAACAGAGGAUUGAGCAUCA
2. chr5:132541444:132541810:-|three_prime_utr|ENSG00000113525|control|control|control (ssRNA) RNA: GGGAGUUCUACAGUCCGACGAUCAAAUUGAUAUACUUUUUUCUUAUUUAACUUAACAUUCUGUAAAAUGUCUGUUAACUUAAUAGUAUUUAUGAAAUGGUUAAGAAUUUGGUAAAUUAGUAUUUAUUUAAUGUUAUGUUGUGUCAACAGAGGAUUGAGCAUCA
3. chr9:83661418:83661519:-|3pUTR|ENSG00000135018|msi1|total|mutant (ssRNA) RNA: GGGAGUUCUACAGUCCGACGAUCUACCGUUGGGUGACCAGAUUUUGUCCUGCAUCUGUCCAGUUUAUUUGCUUUUUAAACAUCCGCCUAUGGCCGUAAUUUAUGCCGAAUAAAAGCAUUAAAAAGAAGCAAAUCAUUUGCACUCAACAGAGGAUUGAGCAUCA
4. chrX:129805617:129805718:-|3pUTR|ENSG00000188706|msi1|FALSE|unique (ssRNA) RNA: GGGAGUUCUACAGUCCGACGAUCUCUUUUCCCAUUAGAUAUAUGUAAGUAGUUGUAGUAGAGAUAAUAAUUGACAUUUCUCGUAGACUACCCAGAAACUUUUUUAAUACCUGUGCCAUUCUCAAUAAGAAUUUAUGAGAUGCCCAACAGAGGAUUGAGCAUCA
5. chr21:25881503:25881610:-|3pUTR|ENSG00000142192|msi1_unk|FALSE|overlapping (ssRNA) RNA: GGGAGUUCUACAGUCCGACGAUCACAAACCCGUUUUAUGAUUUACUCAUUAUCGCCUUUUGACAGCUGUGCUGUAACACAAGUAGAUGCCUGAACUUGAAUUAAUCCACACAUCAGUAAUGUAUUCUAUCUCUCUUUACAUUUCAACAGAGGAUUGAGCAUCA

["15.5 enrichment R", "2.88 enrichment R", "0.203 enrichment R", "71.9 enrichment R", "0.949 enrichment R"]

For each of the binders below, note its binding signal.
1. chr11:74334375:74334476:-|3pUTR|ENSG00000165434|msi1|FALSE|unique (ssRNA) RNA: GGGAGUUCUACAGUCCGACGAUCUUUUUGUUUUAUUUUUAAAAUGUGUAAAACAUCUUUUGUUUUAUAUGCUUUUAAGAAUGUAGAUUGUAAUUUAGGAAAUGGCAUAUAUUCUGCAAAGUGGUAUAAUGUUGUAUAUAUGAACAACAGAGGAUUGAGCAUCA
2. chr7:158734047:158734148:-|3pUTR|ENSG00000117868|msi1_unk|FALSE|overlapping (ssRNA) RNA: GGGAGUUCUACAGUCCGACGAUCCUACCCGGAACACACCCUCUCACAGACGUACCAAUGUUAUUUUUAUAAUUUCAUGGAUUUAGUUAUACAUACCUUAAUAGUUUUAUAAAAUUGUUGACAUUUCAGGCAAAUUUGGCCAAUCAACAGAGGAUUGAGCAUCA
3. ENSG00000070961:be:win_4651|3pUTR|ENSG00000070961|bound_else_gene|NA|bound_elsewhere_windowed (ssRNA) RNA: GGGAGUUCUACAGUCCGACGAUCACAUGUUAGUUUAGUGAUGUCUUGGUGAACUGUGAGUGAACUGUAUUGAUUUUUCUAAUCUUUAGAGACCUUCACACAGCAUGAGGGCUGUUGGCAUUUUGAAAAAGGUUAAUAAGUAGACAACAGAGGAUUGAGCAUCA

3.15 enrichment R
20.8 enrichment R
28.3 enrichment R

Sample chr9:69711526:69711627:-|3pUTR|ENSG00000188647|unk|FALSE|unique (ssRNA) RNA: GGGAGUUCUACAGUCCGACGAUCGAACUGCUGUAGUCUUCUGCAAUCAGUCUCUGUAUUGGUAUAUCCAGUACUAUCGGGUUUAGGUUCUUUUUAUUUUUCCUUAAAUCUUACUUGUUUCUAGCGUCUUAAGAGUGGUAAUGGCAACAGAGGAUUGAGCAUCA ; binding signal observed: 3.44 enrichment R

// data source = paper PMC12136788
